target: LbCas12a (Cas12a, NEB M0653T) (Lachnospiraceae bacterium, UniProt A0A5S8WF58 1-1228); experiment: activation kinetics
Readings of Kd for the listed binders
Kindly answer with a numeric value in nM, unit omitted.

>  <binder>
crRNA-A19 + A19 ssDNA-t target (mixed) RNA: UAAUUUCUACUAAGUGUAGAUGACAUUUUGCUCUCAAGCUG DNA: AACCAGCTTGAGAGCAAAATGTCTGGTAAAGGCCAA

>  <endpointValue>
0.3

$$$$

Query :: Give reported Kd value for crRNA-A19 + A19 ssDNA target (mixed) RNA: UAAUUUCUACUAAGUGUAGAUGACAUUUUGCUCUCAAGCUG DNA: ATTGAACCAGCTTGAGAGCAAAATGTCTGGTAAAGGCCAA
Result :: 0.36
